Values from patent US20240293558A1

Target: KRAS (WT) (Homo sapiens)
Construct: Biotinylated KRAS protein amino acids 1-169 (produced at Erasca); made in house
Sequence (P01116 1-169 isoform P01116-2): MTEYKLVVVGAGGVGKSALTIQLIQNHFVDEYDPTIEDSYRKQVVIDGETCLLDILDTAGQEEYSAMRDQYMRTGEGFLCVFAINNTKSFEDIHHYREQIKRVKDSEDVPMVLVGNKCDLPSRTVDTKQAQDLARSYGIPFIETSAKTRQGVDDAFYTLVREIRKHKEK
Experiment: In-vitro RAS-RAF binding assay (RRB), HTRF/FRET
Type: biochemical
Settings: Table 1; read-out: Inhibition of RAS-RAF Binding (in-vitro) KRAS (WT) IC50
Experimental endpoint: pIC50
Reminder that pIC50 means the negative base-10 logarithm of the concentration expressed in mol/L.

Supply reported pIC50 belonging to this compound: Cc1ncsc1-c1ccc([C@H](CO)NC(=O)[C@@H]2C[C@@H](O)CN2C(=O)[C@@H](NC(=O)CCOCCCN2CCC[C@H]2COc2nc(N3CC4CCC(C3)N4)c3cc(Cl)c(-c4ccc(F)c5sc(N)c(C#N)c45)c(F)c3n2)C(C)(C)C)cc1 [Example 9]
7.31

---

Target: KRAS G12D (Homo sapiens, UniProt P01116, G12D)
Sequence (P01116 1-169 isoform P01116-2 G12D): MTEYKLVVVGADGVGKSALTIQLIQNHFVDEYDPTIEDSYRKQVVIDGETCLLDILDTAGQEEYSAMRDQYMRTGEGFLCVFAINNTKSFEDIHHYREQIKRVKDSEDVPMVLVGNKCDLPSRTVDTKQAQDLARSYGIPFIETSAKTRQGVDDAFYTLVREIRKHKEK
Assay: In-vitro RAS-RAF binding assay (RRB), HTRF/FRET
Assay type: biochemical
Parameters: Biotinylated KRAS protein amino acids 1-169 (produced at Erasca); made in house
Conditions: Table 2, average of multiple runs of each compound; read-out: Inhibition of RAS-RAF Binding (in-vitro) KRAS (G12D) IC50
Procedure: Biotinylated KRAS protein amino acids 1-169 (produced at […]) is labeled with streptavidin-terbium (lanthanide cryptate donor fluorophore) in assay buffer (50 mM HEPES, pH 7.5, 100 mM NaCl, 1 mM MgCl2, 1 mM DTT) at a final concentration of 30 nM. […] A portion of this mixture is transferred to a white 384-well plate (20 uL per well in duplicate) and read on an HTRF compatible plate reader (ClarioSTAR). Fluorescent resonance energy transfer (FRET) is measured at equilibrium. […]
// IC50 lookup, one value per entry
Respond numerically; units are nM and should not be typed.

Guide cases for IC50, answers given:
Compound	Target entity	IC50 / nM
C#Cc1c(F)ccc2cc(O)cc(-c3ncc4c(N5CC6CCC(C5)N6)nc(OC[C@@H]5CCCN5CCCOCCC(=O)N[C@H](C(=O)N5C[C@H](O)C[C@H]5C(=O)N[C@@H](C)c5ccc(-c6c(F)cccc6F)nc5)C(C)(C)C)nc4c3F)c12 [Example 31]	KRAS G12D (Homo sapiens, UniProt P01116, G12D)	8.38
C#Cc1c(F)ccc2cc(O)cc(-c3ncc4c(N5CC6CCC(C5)N6)nc(OC[C@@H]5CCCN5CCCOCCC(=O)N[C@H](C(=O)N5C[C@H](O)C[C@H]5C(=O)N[C@@H](C)c5ccc(-c6c(Cl)cccc6Cl)cc5)C(C)(C)C)nc4c3F)c12 [Example 45]	KRAS G12D (Homo sapiens, UniProt P01116, G12D)	8.97
C#Cc1c(F)ccc2cc(O)cc(-c3ncc4c(N5CC6CCC(C5)N6)nc(OC[C@@H]5CCCN5CCCOCCC(=O)N[C@H](C(=O)N5C[C@H](O)C[C@H]5C(=O)N[C@@H](C)c5ccc(-c6c(F)cccc6C(F)(F)F)cc5)C(C)(C)C)nc4c3F)c12 [Example 43]	KRAS G12D (Homo sapiens, UniProt P01116, G12D)	7.68

We now examine a further compound.
Supply reported IC50 belonging to this compound: Cc1ncsc1-c1ccc([C@H](C)NC(=O)[C@@H]2C[C@@H](O)CN2C(=O)[C@@H](NC(=O)CCOCCCN2CCC[C@H]2COc2nc(N3CC4CCC(C3)N4)c3cc(C(F)(F)F)c(-c4ccc(F)c5sc(N)c(C#N)c45)cc3n2)C(C)(C)C)cc1 [Example 80]
13.9
